# Tested on: Glutamate receptor ionotropic, NMDA 3A (GRIN3A) ligand-binding domain
# testMethodNotes: binders of NR3A ligand-binding domain, primary screen, biophysical, differential scanning fluorimetry, uHTS (AID 1259313)
# setupConditions: NR3A LBD differential scanning fluorimetry, at 25 µM, 0% = protein alone, 100% = glycine-bound protein
Among all 340,000 compounds or so, about 8,500 (2.5%) were called active.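 How the source made its calls: active means melting temperature shift of at least 10% of the positive control shift, at one fixed dose; inactive means the rest.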 Many of the other results were omitted from the sample, so actives are more common in it than they were.
Lab note: assign the record to one of active, inactive

What call does the record list for "CN(CC(=O)Nc1cccc(F)c1)C(=O)CC1CCCC1" ? inactive

Do the same for COc1cc(OC)cc(C(=O)NC(C(=O)N2CCC2)C(C)C)c1 (stereo unspecified) please inactive

Do the same for "CCN(CC)C(=O)CSC(Nc1cccc(F)c1)=C(C#N)C#N" please active

Do the same for "CCCN(CCC)C(=S)Nc1cc(C(=O)OC)ccc1C(=O)OC" please inactive

Do the same for O=C(NN=CC=Cc1ccccc1)C(O)C(O)C(=O)NN=CC=Cc1ccccc1 (stereo unspecified) please inactive

Do the same for "Cc1ccc(CSCC(=O)N(C)CC(=O)Nc2cccc(F)c2)cc1" please inactive

---

Assignment: determine reported Tm shift relative to glycine control for the given compounds.
# System: Glutamate receptor ionotropic, NMDA 3A (GRIN3A) ligand-binding domain
# testMethodNotes: binders of NR3A ligand-binding domain, primary screen, biophysical, differential scanning fluorimetry, uHTS (AID 1259313)
# setupConditions: NR3A LBD differential scanning fluorimetry, at 25 µM, stronger effect = higher value, 0% = protein alone, 100% = glycine-bound protein
In all, about 340,000 compounds went through this assay and about 8,500 (2.5%) were called active. Many of the other results were omitted from the sample, so actives are more common in it than they were.
Express it in %; write the number only.

Query (compound): "COc1ccc(-c2cc(C(=O)Nc3ccccc3O)c3ccccc3n2)cc1" ; field requested: Tm shift relative to glycine control 21

Do the same for "Cc1ccn2cc(-c3nonc3C)cc2c1" please -33.8

Do the same for "C[C@@H]1ON(C)[C@H]2C[C@H]3c4cc(N5CCN(C)CC5)ccc4CCN3C(=O)[C@@H]12" please 2.38

Do the same for Cc1ccc(CNC(=O)CCS(=O)(=O)c2ccc3c(c2)CC(C)N3C(=O)C2CC2)o1 (centres undefined) please -0.09

Do the same for "COc1ccc(-c2cc(C(=O)n3cnc4ccccc43)c3ccccc3n2)cc1" please -1.16

Do the same for "Cc1cccc(OCCC(=O)OCc2csc(CC(=O)Nc3ccccc3C)n2)c1" please -1.22

Do the same for "CCn1c(SCc2ccccc2)nc2cc(OC)c(OC)cc2c1=O" please -6.11

Do the same for COc1cccc(CNS(=O)(=O)c2ccc3c(c2)CC(C)N3C(C)=O)c1 (centres undefined) please 2.23

Do the same for "CCOC(=O)N1CCN(C(=O)CSc2nnc(-c3c[nH]c4ccccc34)n2CCOC)CC1" please 0.55

Do the same for CSc1cccc(NC(=S)N(C(C)C)C(C)c2ccccn2)c1 (centres undefined) please 13.8

Do the same for "CCCn1c(C)cc(-c2csc(NC(=O)CCc3nc4ccccc4c(=O)[nH]3)n2)c1C" please -0.45

Do the same for CC(c1ccccn1)N(CCN(C)C)C(=S)Nc1ccccc1F (centres undefined) please 0

Do the same for "Cc1cccc(C(=O)N2CCN(S(=O)(=O)N3CCCCC3)CC2)c1" please 11.1

Do the same for "CSc1cccc(NC(=S)N(Cc2ccccc2)Cc2ccccn2)c1" please -4.28

Do the same for "CCN(CC(=O)NC(C)C)C(=O)c1cc(S(=O)(=O)N2CCCCC2)ccc1N1CCCCC1" please -0.99

Do the same for "CC(C)Cn1cnc2c(SCc3ccc(Cl)cc3)nc(N)nc21" please -6.54

Do the same for "CC(C)c1cc(C(=O)N/N=C/C(Br)=C/c2ccccc2)n[nH]1" please 6.56

Do the same for "Cc1c(Cl)cccc1NC(=O)CSc1ccc(-c2cccnc2)nn1" please 0.4

Do the same for CC(C)(C)C1CCC(=NNC(=O)c2cc(-c3ccccc3)n[nH]2)CC1 (centres undefined) please -5.15

Do the same for "O=P(O)(CP(=O)(c1ccccc1)c1ccccc1)c1ccccc1O" please -4.72

Do the same for COc1cccc(/C=C2\Sc3ccc(C(=O)NCC4CCCO4)cc3N(C)C2=O)c1 (centres undefined) please -11.6

Do the same for "CC(/C=N/NC(=O)c1cc(-c2ccc3ccccc3c2)n[nH]1)=C\c1ccco1" please 16.4

Do the same for "Cn1cccc1C(=O)OCC(=O)NCCc1ccccc1" please -0.25

Do the same for CN(CC1CCCN(CCc2cccc(C(F)(F)F)c2)C1)C(=O)c1ccc2nc[nH]c2c1 (centres undefined) please 1.25

Do the same for "Nc1cc(=O)nc(SCc2ccccc2)n1Cc1ccco1" please 10.8

Do the same for "Cc1nc2cc(NC(=O)Nc3cccc(F)c3)ccc2n1C" please -0.72

Do the same for "Cc1ccc(C(=O)N2CCN(S(=O)(=O)N3CCOCC3)CC2)cc1" please -1.26

Do the same for "CCCCOc1ccc(NC(=O)[C@@H]2CCCN2C(=O)C2CCN(S(=O)(=O)c3ccc(C)cc3)CC2)cc1" please 0

Do the same for "Cc1cccc(NC(=O)CCn2c(=O)oc3ccccc32)c1" please -0.8

---

# Test system: Glutamate receptor ionotropic, NMDA 3A (GRIN3A) ligand-binding domain
# testMethodNotes: binders of NR3A ligand-binding domain, primary screen, biophysical, differential scanning fluorimetry, uHTS (AID 1259313)
# setupConditions: NR3A LBD differential scanning fluorimetry, at 25 µM, 0% = protein alone, 100% = glycine-bound protein
Among all 340,000 compounds or so, about 8,500 (2.5%) were called active.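 Rule for the calls: active = melting temperature shift of at least 10% of the positive control shift, at one fixed dose; inactive = the rest.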 This excerpt belongs to a sample that is enriched for actives.
Lab note: assign the record to one of active, inactive

What call does the record list for "Cc1ccc(C)c(NC(=O)COC(=O)c2nn(C)c(=O)c3ccccc23)c1" ? inactive

Do the same for Cc1cc(Cl)ccc1N1C(=O)CC(SCCC(=O)O)C1=O (stereo unspecified) please inactive

Do the same for CC1CN(CC(=O)NC(C)c2ccccc2)CC(C)O1 (stereo unspecified) please inactive

Do the same for "Cc1ccc(S(=O)(=O)N(C)CC(=O)NCCc2c[nH]c3ccccc23)cc1" please inactive

Do the same for "N#CCc1c[nH]c2ccc([N+](=O)[O-])cc12" please active

Do the same for "O=C(NCCc1c[nH]c2ccc(Cl)cc12)c1ccc([N+](=O)[O-])cc1" please active

Do the same for "O=C(c1cc2ccccc2o1)N1CCN(Cc2ccccc2)CC1" please inactive

Do the same for "Cc1cc(C)cc(NC(=S)NCCc2c[nH]c3ccccc23)c1" please active

Do the same for "C=CCc1cccc2cc(C(=O)N3CCN(C(=O)OCC)CC3)c(=O)oc12" please inactive

Do the same for "Cc1ccc2[nH]cc(CCNC(=O)c3ccc([N+](=O)[O-])cc3)c2c1" please inactive

Do the same for CCCN(CC1COc2ccccc2O1)C(=S)Nc1ccc(C)cc1 (stereo unspecified) please inactive

---

# Tested on: Glutamate receptor ionotropic, NMDA 3A (GRIN3A) ligand-binding domain
# testMethodNotes: binders of NR3A ligand-binding domain, primary screen, biophysical, differential scanning fluorimetry, uHTS (AID 1259313)
# setupConditions: NR3A LBD differential scanning fluorimetry, at 25 µM, stronger effect = higher value, 0% = protein alone, 100% = glycine-bound protein
Screen size: about 340,000 compounds; about 8,500 (2.5%) were called active. Shown is part of a subset that was picked to be rich in actives.
Assignment: determine reported Tm shift relative to glycine control for the given molecules.
Express it in %; write the number only.

Query (molecule): "C=C(C)COc1ccc(-c2nc(N)ncc2-c2ccccc2OC)c(O)c1" ; field requested: Tm shift relative to glycine control -3.37

Do the same for CC(C)(C)N(CC#CCC(O)(c1ccccc1)C1CCCC1)CCO (stereo unspecified) please 14.9

Do the same for "CCOc1ccc(-c2cc(C(=O)N/N=C/c3ccc(O)cc3)c3ccccc3n2)cc1" please 3.69

Do the same for "COC(=O)N/N=C/c1cn(CCCOc2ccc(C)cc2)c2ccccc12" please 12.8

Do the same for "CCOC(=O)N/N=C/c1cn(Cc2ccccc2Cl)c2ccccc12" please -13.8

Do the same for "CNC(=S)N/N=C/c1cn(Cc2ccc(C)cc2)c2ccccc12" please -1.66

---

# Tested on: Glutamate receptor ionotropic, NMDA 3A (GRIN3A) ligand-binding domain
# testMethodNotes: binders of NR3A ligand-binding domain, primary screen, biophysical, differential scanning fluorimetry, uHTS (AID 1259313)
# setupConditions: NR3A LBD differential scanning fluorimetry, at 25 µM, stronger effect = higher value, 0% = protein alone, 100% = glycine-bound protein
Out of some 340,000 compounds screened, about 8,500 (2.5%) were called active. The sample as a whole holds a higher share of actives than the screen did.
Assignment: determine reported Tm shift relative to glycine control for the given compounds.
Express it in %; write the number only.

# get_value(readout= Tm shift relative to glycine control, system= Glutamate receptor ionotropic, NMDA 3A (GRIN3A) ligand-binding domain) for "O=[N+]([O-])c1ccc(C=NN=Cc2ccc([N+](=O)[O-])cc2)cc1" 12.6

Do the same for "CCOc1cc(/C=N/O)cc(Br)c1OC" please 10.5

Do the same for "COc1cccc(NC(=O)CN(C)C(=O)Cc2ccc(Cl)cc2Cl)c1" please -0.7

Do the same for "Cc1cc(Cl)c(S(=O)(=O)NCCC(=O)O)cc1OCC(N)=O" please -2.09

Do the same for COc1cccc(CN(C)CC(O)COC(c2ccccc2)c2ccccc2C)c1 (stereo not drawn) please -2.39

Do the same for "O=[N+]([O-])c1cccc(/C=N/Nc2ncc(Br)cn2)c1" please -2.79

Do the same for "COc1ccc(NC(=O)CCCC2CCCCC2)c(OC)c1" please 2.43

Do the same for CC1(NC(=O)CCS(=O)(=O)c2ccc(Cl)cc2)CCS(=O)(=O)C1 (stereo not drawn) please 1.08

Do the same for "CC(C)c1ccc(C=NNc2ccc([N+](=O)[O-])cn2)cc1" please -2.51

Do the same for "CCOc1cc(/C=C(/C#N)c2ccc(Cl)cc2)cc(Cl)c1OCC(=O)O" please -1.37

Do the same for "Cc1cccc(NC(=O)Nc2cccc(Oc3c(F)c(F)c(F)c(F)c3F)c2)c1" please 29.1

Do the same for "COc1cc(/C=N/O)cc(Br)c1OCc1cccc(Cl)c1" please 9.46

Do the same for "CCN(CC)c1ccc(C(=O)NNC(=O)CCc2nc3ccccc3c(=O)[nH]2)cc1" please -0.56

Do the same for "O=[N+]([O-])c1ccc(N/N=C/c2ccccc2)cc1" please 29.2

Do the same for "Cc1cc(C)cc(NC(=O)Cn2cnc3c(nnn3Cc3ccc(F)cc3)c2=O)c1" please 3.35

Do the same for "Cc1ccoc1C(=O)Nc1cccc(Oc2ccccc2)c1" please -3.01

Do the same for "Cc1cccc(C(=O)Nc2ccccc2C(=O)NCc2cccnc2)c1" please -0.85

Do the same for CCCC(=O)Nc1cccc(NC(=S)NC(=O)C(C)Oc2ccc(Cl)cc2Cl)c1 (stereo not drawn) please 16

Do the same for "CC(C)CNC(=O)COC(=O)c1ccccc1OCC(=O)Nc1ccc(Br)cc1" please 0.17

Do the same for "O=[N+]([O-])c1ccc(N=NNc2ccc([N+](=O)[O-])cc2)cc1" please 4.69

Do the same for "CCOc1c(Cl)cc(/C=N/O)cc1OC" please 10.8

Do the same for "CCOc1cc(/C=N/O)ccc1OCc1ccccc1F" please -0.35

Do the same for "O=C1/C(=C\c2ccc([N+](=O)[O-])cc2)CS(=O)(=O)C/C1=C/c1ccc([N+](=O)[O-])cc1" please -9.77
